So I've got a bunch of compounds here, and I need their IC50 values.
# testedTarget: SF3b complexes (Homo sapiens, UniProt O75533+Q7RTV0)
# Construct: endogenous in cells
# assayText: Scintillation proximity assay (SPA) with [3H]-labelled pladienolide probe
# measurementContext: wt SF3B1, read-out: SPA (wt SF3B1 cells) IC50
Number only, in nM; omit the unit.

The compound identified as `C/C(=C\C=C\[C@@H](C)COC(=O)N1CCC[C@H]1CF)[C@H]1OC(=O)C[C@H](O)CC[C@@](C)(O)[C@@H](OC(=O)N2CCN(C3CCCCCC3)CC2)/C=C/[C@@H]1C` registered its IC50 at 4.23

Entry C/C(=C\C=C\C(C)c1ncccc1C)[C@H]1OC(=O)C[C@H](O)CC[C@@](C)(O)[C@@H](OC(=O)N2CCN(C3CCCCCC3)CC2)/C=C/[C@@H]1C (stereo partly drawn) ; IC50 = 6.26

Measured IC50, `C/C(=C\C=C\[C@@H](C)c1ccccn1)[C@H]1OC(=O)CCCCC[C@@H](OC(=O)N2CCN(C)CC2)/C=C/[C@@H]1C` : 7.9

Memo: `C/C(=C\C=C\[C@@H](C)c1ncccn1)[C@H]1OC(=O)C[C@H](O)CC[C@@](C)(O)[C@@H](OC(=O)N2CCN(C3CCCCCC3)CC2)/C=C/[C@@H]1C` , reported IC50: 8.1

// sample `C/C(=C\C=C\[C@@H](C)CNC(=O)C1CCCC1)[C@H]1OC(=O)C[C@H](O)CC[C@@](C)(O)[C@@H](OC(=O)N2CCN(C3CCCCCC3)CC2)/C=C/[C@@H]1C` , its IC50 was 11.2

Lab note: `C/C(=C\C=C\[C@@H](C)c1cccnc1)[C@H]1OC(=O)C[C@H](O)CC[C@@](C)(O)[C@@H](OC(=O)N2CCN(C3CCCCCC3)CC2)/C=C/[C@@H]1C` gave IC50 of 2.34

----------
# Tested on: Panc 05.04 cells (pancreatic cancer cells; Q699H and K700E mutations in SF3B1)
# assayText: Cell viability assay (CellTiter-Glo, 72 hr), Panc 05.04 cells
# Type: cell-based
# measurementContext: Panc 05.04 cells (mutant SF3B1); read-out: Panc 05.04 (mt SF3B1 cells), GI50
assayEndpoint: GI50 (nM)
Entry rule: numbers only, all in nM.

Given item `C/C(=C\C=C\[C@@H](C)COC(=O)N1[C@H](C)CC[C@H]1C)[C@H]1OC(=O)C[C@H](O)CC[C@@](C)(O)[C@@H](OC(=O)N2CCN(C)CC2)/C=C/[C@@H]1C` , the value recorded as its GI50 is 1.12

Recorded result, `C/C(=C\C=C\[C@@H](C)c1ccccn1)[C@H]1OC(=O)CCCC[C@@](C)(O)[C@@H](OC(=O)N2CCN(C)CC2)/C=C/[C@@H]1C` , GI50: 33.9

Measured GI50, `C/C(=C\C=C\[C@@H](C)COC(=O)N1CC[C@@H](N(C)C)C1)[C@H]1OC(=O)C[C@H](O)CC[C@@](C)(O)[C@@H](OC(=O)N2CCN(C3CCCCCC3)CC2)/C=C/[C@@H]1C` : 33

Data point: `C/C(=C\C=C\[C@@H](C)c1ccccn1)[C@H]1OC(=O)C[C@H](O)CC[C@@](C)(O)[C@@H](OC(=O)N2CC[N+](C)([O-])CC2)/C=C/[C@@H]1C` ; GI50 = 45.4

Recorded result, `C/C(=C\C=C\[C@@H](C)c1ccccn1)[C@H]1OC(=O)CCCCC[C@@H](OC(=O)N2CCN(C)CC2)/C=C/[C@@H]1C` , GI50: 75.1

The reported value for `C/C(=C\C=C\[C@@H](C)CNC(=O)N1CCCC1)[C@H]1OC(=O)C[C@H](O)CC[C@@](C)(O)[C@@H](OC(=O)N2CCN(C3CCCCCC3)CC2)/C=C/[C@@H]1C` in terms of GI50 is 19.8

# GI50 of `CC[C@H](O)[C@@H](C)NC(=O)OC[C@H](C)/C=C/C=C(\C)[C@H]1OC(=O)C[C@H](O)CC[C@@](C)(O)[C@@H](OC(C)=O)/C=C/[C@@H]1C` = 327

Lab note: measured GI50 of `C/C(=C\C=C\[C@@H](C)COC(=O)N1CCC[C@H]1CO)[C@H]1OC(=O)CCCCC[C@@H](OC(=O)N2CCN(C)CC2)/C=C/[C@@H]1C` was 2.9

Reported GI50 for C/C(=C\C=C\C(C)c1cccnc1)[C@H]1OC(=O)C[C@H](O)CC[C@@](C)(O)[C@@H](OC(=O)N2CCC(N3CCC(F)(F)CC3)CC2)/C=C/[C@@H]1C (stereo partly drawn) was 94.8

Input `C/C(=C\C=C\[C@@H](C)COC(=O)N1Cc2ccccc2C1)[C@H]1OC(=O)C[C@H](O)CC[C@@](C)(O)[C@@H](OC(=O)N2CCN(C)CC2)/C=C/[C@@H]1C` . Output GI50: 35.4

Consider `C/C(=C\C=C\[C@@H](C)c1ccccn1)[C@H]1OC(=O)C[C@H](O)CC[C@@](C)(O)[C@@H](OC(=O)N2CCN(C3CCCCC3)CC2)/C=C/[C@@H]1C` . Its measured GI50 is 21.4

GI50 for `C/C(=C\C=C\[C@@H](C)c1ccccn1)[C@H]1OC(=O)C[C@H](O)CC[C@@](C)(O)[C@@H](OC(=O)N2CCN(C3CCCC3)CC2)/C=C/[C@@H]1C` is 27.9

----------
# Test system: Panc 05.04 cells (pancreatic cancer cells; Q699H and K700E mutations in SF3B1)
# assayText: Cell viability assay (CellTiter-Glo, 72 hr), Panc 05.04 cells
# Assay type: cell-based
# measurementContext: Panc 05.04 cells (mutant SF3B1); maximum achievable response in tested dose range, negative value = cellular lethality; read-out: Panc 05.04 (mt SF3B1 cells) Emax (%)
Can you tell me Emax for the items I'm about to list?
Please format your answer as a value with the unit trailing.

Record summary for `C/C(=C\C=C\[C@@H](C)COC(=O)N1CCCC1)[C@H]1OC(=O)C[C@H](O)CC[C@](C)(O)[C@@H](OC(=O)N2CCN(C)CC2)/C=C/[C@@H]1C` : reported Emax = -83.7%

The reported value for `C/C(=C\C=C\[C@@H](C)c1ccccn1)[C@H]1OC(=O)C[C@H](O)CC[C@@](C)(O)[C@@H](OC(=O)N2CCCN(C3CCCCCC3)CC2)/C=C/[C@@H]1C` in terms of Emax is -12.7%

# Emax (compound: `C/C(=C\C=C\[C@@H](C)COC(=O)N1CCCC1)[C@H]1OC(=O)C[C@H](O)CC[C@H](C)[C@@H](OC(=O)N2CCN(C)CC2)/C=C/[C@@H]1C` ) is -86%

----------
# testedTarget: SF3b complexes (Homo sapiens, UniProt O75533+Q7RTV0)
# Construct: endogenous in cells
# assayText: Scintillation proximity assay (SPA) with [3H]-labelled pladienolide probe
# Assay type: binding
# measurementContext: wt SF3B1, read-out: SPA (wt SF3B1 cells) IC50
# Description: Batch immobilization of anti-SF3B1 antibody (MBL) to anti-mouse PVT SPA scintillation beads (PerkinElmer) was prepared as follows: for every 2.5 mg of nuclear extracts, 5 μg anti-SF3B1 antibody and 1.5 mg of beads were mixed in 150 μl PBS. The antibody-bead mixture was incubated for 30 min at RT and centrifuged at 18,000 g for 5 min. […] The mixture was incubated for 30 min, and luminescence signals were read using a MicroBeta2 Plate Counter (PerkinElmer). […]
Consider the following molecules; for each one, report its pIC50.
FYI, pIC50 means -log10 of a concentration in mol per litre.

# value of pIC50, SF3b complexes (Homo sapiens, UniProt O75533+Q7RTV0), item `C/C(=C\C=C\[C@@H](C)c1ccccn1)[C@H]1OC(=O)C[C@H](O)CC[C@@](C)(O)[C@@H](OC(=O)N2CCCN(C3CCCCCC3)CC2)/C=C/[C@@H]1C` = 8.14

`CC[C@H](O)[C@@H](C)[C@H]1O[C@@H]1C[C@@](C)(O)/C=C/C=C(\C)[C@H]1OC(=O)C[C@H](O)CC[C@@](C)(OC(C)=O)[C@@H](OC(=O)N2CCN(CCO)CC2)/C=C/[C@@H]1C` tested on SF3b complexes (Homo sapiens, UniProt O75533+Q7RTV0) gave pIC50: 7.61

Lab entry: SF3b complexes (Homo sapiens, UniProt O75533+Q7RTV0) assay, molecule `C/C(=C\C=C\[C@@H](C)COC(=O)N1CCCC1)[C@H]1OC(=O)CCCCC[C@@H](NC(=O)N2CCN(C)CC2)/C=C/[C@@H]1C` , pIC50 = 7.84

Recorded pIC50 for `C/C(=C\C=C\[C@@H](C)c1ccccn1)[C@H]1OC(=O)C[C@H](O)CC[C@H](C)[C@@H](OC(=O)N2CCN(C)CC2)/C=C/[C@@H]1C` on SF3b complexes (Homo sapiens, UniProt O75533+Q7RTV0) was 8.42

pIC50 value, target or system SF3b complexes (Homo sapiens, UniProt O75533+Q7RTV0), for `C/C(=C\C=C\[C@@H](C)Cn1cc(C2CC2)nn1)[C@H]1OC(=O)C[C@H](O)CC[C@@](C)(O)[C@@H](OC(=O)N2CCN(C3CCCCCC3)CC2)/C=C/[C@@H]1C` : 7.85

SF3b complexes (Homo sapiens, UniProt O75533+Q7RTV0) pIC50 of `CC(=O)O[C@H]1/C=C/[C@H](C)[C@@H](/C(C)=C/C=C/[C@H](C)c2ccccn2)OC(=O)C[C@H](O)CC[C@@]1(C)O` is 6.63
